B1: C2CD2L (parent)
chain: LTLKVLRSSSCGDTELLGQATLPV

Variants of: B1
Assay: protein stability index of a GFP-peptide fusion (GPS, HEK-293T) (PSI 1-6); higher = more stable;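 note: lentivirally expressed fusions sorted by FACS into six bins by GFP to DsRed ratio, PSI derived from sequencing read proportions per bin multiplied by bin number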
Settings: c terminus: a fixed tail appended
Tag: Criterion met if measured protein stability index is not below 2, Criterion not met if it is.

Evaluate L16F : protein stability index at minimum 2?
Criterion met

Evaluate G18Y : protein stability index at minimum 2?
Criterion not met

Evaluate L1G : protein stability index at minimum 2?
Criterion met

Evaluate A20S : protein stability index at minimum 2?
Criterion not met

Evaluate V24A : protein stability index at minimum 2?
Criterion met
